# target_system: T1, human PACAP38 (human, not fully specified; C-terminal lysine is amidated; N-terminal or C-terminal biotin in the HTRF and PC-12 cell binding assays)
# T1 construct: synthetic peptide, bought; also called huPACAP (1-38)
# T1 peptide: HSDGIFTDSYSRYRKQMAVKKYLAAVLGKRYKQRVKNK
# assay_notes: SPR, Ab immobilised
# From the text: Binding affinities of monoclonal antibodies for human PACAP were estimated using SPR on the PROTEON™ XPR36 (Bio-Rad, Hercules, Calif.). Antibody was immobilized to the surface of general amine coupling (“GLC” or “GLM”) Chips (Bio-Rad, Hercules, Calif.). […]
Label class 1 when kon is strictly below 400000 M⁻¹ s⁻¹; at or above that, label class 0.

Some solved entries appear below for comparison.
Confirm or reject: kon of anti-PACAP antibody Ab22 (antibody, human IgG1, kappa, N297A, V domains shown, full-length rabbit/human chimeric antibody; PACAP38 specific) VH: QEQLVESGGGLVQPEGSLTLTCTASGFDFSSNAMCWVRQAPGKGLEWIGSIYNADGKNYYAIWAKGRFTISRTSSTTVTLQMTSLTAADTATYFCARDFDLWGQGTLVTVSS VL: AAVLTQTPSPVSAAVGGTVTINCQSSQSVYDNDWLAWFQQKPGQPPKLLIYLTSTLASGVPSRFSGSGSGTQFTLTISGVQCDDAATYYCLGGYDEDGDTHVFGGGTEVVVKR lies strictly below 400000 M⁻¹ s⁻¹
class 1

Confirm or reject: kon of anti-PACAP antibody Ab17 (antibody, human IgG1, kappa, N297A, V domains shown, full-length rabbit/human chimeric antibody) VH: QSVEESGGRLVTPGTPLTLTCTVSGFSLSSAAMNWVRQAPGKGLEWIGIFDPYSSTYYASWAKGRFTISKTSSTTVDLKMTSPTTEDTATYFCARGGGEFFIWGPGTLVTVSS VL: AQVLTQTPSSVSAAVGGTVTINCQSSQSVYKNKYLSWYQQKVGQPPKFLIYQASNLASGVPSRFKGSGSGTQFTLTISDLECDDAATYYCAGGYSGNMVDFGGGTEVVVKR lies strictly below 400000 M⁻¹ s⁻¹
class 0

Confirm or reject: kon of anti-PACAP antibody Ab3.H (antibody, human IgG1, kappa, N297A, V domains shown, humanized form of Ab3, full length) VH: EVQLVESGGGLVQPGGSLRLSCAASGFSFSSSDYMCWVRQAPGKGLEWIGCIDAGSSGDTYFASSAKGRFTISRDNSKNTVYLQMNSLRAEDTAVYFCARHLYGSITFAFGLWGQGTLVTVSS VL: AAQMTQSPSTLSASVGDRVTITCQASQSIGSDLAWYQQKPGKAPKLLIYDASTLASGVPSRFSGSGSGTEFTLTISSLQPDDFATYYCQGTYYSSGWYTAFGGGTKVEIKR lies strictly below 400000 M⁻¹ s⁻¹
class 0

Confirm or reject: kon of anti-PACAP antibody Ab12.H (antibody, human IgG1, kappa, N297A, V domains shown, humanized form of Ab12, full length) VH: EVQLVESGGGLVQPGGSLRLSCAASGFSLSSYAMGWVRQAPGKGLEWIGDISTYGTTDYASWVYGRFTISRDNSKNTVYLQMNSLRAEDTAVYFCARDYWLSLWGQGTLVTVSS VL: AAQLTQSPSTLSASVGDRVTITCQSSQSVYDNNALAWYQQKPGKAPKLLIYAASTLASGVPSRFSGSGSGTEFTLTISSLQPDDFATYYCLGGYYDPADNAFGGGTKVEIKR lies strictly below 400000 M⁻¹ s⁻¹
class 1

Pending binder:
Confirm or reject: kon of anti-PACAP antibody Ab14 (antibody, human IgG1, kappa, N297A, V domains shown, full-length rabbit/human chimeric antibody) VH: QSVEASGGRLVTPGTPLTLTCTVSGFSLSSAAMNWVRQAPGKGLEWIGFIEYSKNIVYASWAKGRFTISKVSSTTVDLKMTSPTTEDTATYFCARGGGEFFIWGQGTLVTVSS VL: AQVLTQTPSSVSAAVGGTVTINCQSSQSVYSNNRLSYYQQKPGQPPKLLIYEASSLAYGVPSRFKGSGSGTQFTLTISDLECDDAATYYCAGAYSNSIYSFGGGTEVVVKR lies strictly below 400000 M⁻¹ s⁻¹
class 1
